Reference source: the Immune Epitope Database (IEDB)

Target: HLA-A*31:01
Assay: IEDB peptide-MHC binding, purified MHC/competitive/radioactivity; filed as Kd, often an IC50 or EC50 that approximates it; bounds were set here for any values at or beyond the usual limits of such assays
Conditions: source organism: Lassa virus Josiah
pKd: −log10 of the molar value.
Quantity measured: pKd

>  <Seq string>
SFYLISIFLH

>  <Measured value>
6.80

$$$$

====

Target: HLA-A*23:01
Assay: IEDB peptide-MHC binding, purified MHC/competitive/radioactivity; filed as Kd, often an IC50 or EC50 that approximates it; bounds were set here for any values at or beyond the usual limits of such assays
Details: source organism: Mammarenavirus lassaense
Quantity measured: Kd

>  <Seq string>
AGFTAGLSY

>  <Quantity measured>
Kd

>  <Measured value>
≥ 69.9 µM

$$$$

====

Biological target: HLA-A*03:01
Assay: IEDB peptide-MHC binding, purified MHC/direct/fluorescence; filed as Kd, often an IC50 or EC50 that approximates it; bounds were set here for any values at or beyond the usual limits of such assays
Settings: source organism: Entamoeba histolytica HM-1:IMSS

>  <Seq string>
FIILSTGKY

>  <Kd>
≥ 20 µM

$$$$

====

Quick list: pKd per entry.
Molecular target: HLA-B*40:01
Assay: IEDB peptide-MHC binding, purified MHC/competitive/radioactivity; filed as Kd, often an IC50 or EC50 that approximates it; bounds were set here for any values at or beyond the usual limits of such assays
Conditions: source organism: Dengue virus 1 Brazil/97-11/1997
pKd: −log10 of the molar value.
Quantity measured: pKd

>  <Seq string>
IEVKTCIWPK

>  <Measured value>
5.54

$$$$
>  <Seq string>
FEATARGARR

>  <Measured value>
5.72

$$$$
>  <Seq string>
PEVANLDII

>  <Measured value>
5.07

$$$$

====

Biological target: HLA-A*68:01
Test: IEDB peptide-MHC binding, purified MHC/competitive/radioactivity; filed as Kd, often an IC50 or EC50 that approximates it; bounds were set here for any values at or beyond the usual limits of such assays
Settings: source organism: Dengue virus 4 Philippines/H241/1956

>  <Seq string>
EMILMKMKK

>  <Kd>
74.2 nM

$$$$

====

Target: HLA-B*15:17
Assay: IEDB peptide-MHC binding, purified MHC/competitive/fluorescence; filed as Kd, often an IC50 or EC50 that approximates it; bounds were set here for any values at or beyond the usual limits of such assays
Details: source organism: Mycobacterium tuberculosis variant bovis BCG str. Pasteur 1173P2
pKd: −log10 of the molar value.

>  <Seq string>
KPIPHRTVL

>  <pKd>
≤ 4.70

$$$$

====

Biological target: HLA-A*33:01
Assay: IEDB peptide-MHC binding, purified MHC/competitive/radioactivity; filed as Kd, often an IC50 or EC50 that approximates it; bounds were set here for any values at or beyond the usual limits of such assays
Details: source organism: Lassa virus Josiah
pKd: −log10 of the molar value.

>  <Seq string>
SFYLISIFLH

>  <Tested target>
HLA-A*33:01

>  <pKd>
6.55

$$$$

====

Listed next: entries and their corresponding Kd.
Target: HLA-A*31:01
Assay: IEDB peptide-MHC binding, purified MHC/direct/fluorescence; filed as Kd, often an IC50 or EC50 that approximates it; bounds were set here for any values at or beyond the usual limits of such assays
Settings: source organism: Brucella abortus

>  <Seq string>
KLYERNTAF

>  <Units of measure>
nM

>  <Qualifier symbol>
=

>  <Kd>
138

$$$$
>  <Seq string>
GRKTPLLCF

>  <Units of measure>
nM

>  <Qualifier symbol>
≥

>  <Kd>
20000

$$$$
